- System Under Test: MEK1^CA (human GST-MEK1, constitutively active, Ser218Asp and Ser222Asp) (Homo sapiens, UniProt Q02750, S218D/S222D)
- Construct: GST; made in house; host or cells: Escherichia coli
- Sequence (Q02750 whole entry S218D/S222D): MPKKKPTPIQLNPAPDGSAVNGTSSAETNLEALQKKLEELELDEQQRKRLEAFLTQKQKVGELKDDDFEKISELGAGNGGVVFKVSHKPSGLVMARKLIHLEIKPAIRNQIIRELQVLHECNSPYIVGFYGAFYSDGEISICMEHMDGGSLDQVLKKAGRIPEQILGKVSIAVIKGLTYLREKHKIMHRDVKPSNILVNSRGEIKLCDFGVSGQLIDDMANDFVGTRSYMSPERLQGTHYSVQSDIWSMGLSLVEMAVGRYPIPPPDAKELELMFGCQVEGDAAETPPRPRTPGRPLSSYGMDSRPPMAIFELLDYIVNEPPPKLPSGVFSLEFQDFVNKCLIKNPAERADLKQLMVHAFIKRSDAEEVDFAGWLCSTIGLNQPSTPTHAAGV
- Test: MEK1 enzymatic activity assay (MEK1^CA / ERK2 / MBP, [γ-33P]ATP incorporation)
- Format: biochemical
- Protocol Conditions: Table 1, compounds of formula I; read-out: Avg IC50
- Description: Materials and preparation of reagents: Human GST-MEK1 and the constitutively active allele GST-MEK1^CA (harboring the mutations Ser218Asp and Ser222Asp) were subcloned into the […] expression vector pGEM4Z (Promega, Madison, Wis.) from the wild type human MEK1 cDNA. GST-MEK1^CA was expressed in Escherichia coli and partially purified using Glutathione Sepharose 4B affinity resin (Amersham Pharmacia Biotech, Piscataway, N.J.). […]
The molecules listed here are annotated with their IC50.

> print(dat)
                                   molecule  experimental.value
1  CC(C)NC(=N)c1c(O)nsc1Nc1ccc(Oc2cccc(N(C)C)c2)cc1 [compound 260]       0.1 to 0.5 µM
2  CNC(=N)c1c(O)nsc1Nc1ccc(Oc2ccccc2)c(F)c1 [compound 309]            > 0.5 µM
3  N=C(NCC(O)O)c1c(O)nsc1Nc1ccc(Oc2ccccc2Cl)cc1 [compound 210]       0.1 to 0.5 µM

Looking up CC(CO)NC(=N)c1c(O)nsc1Nc1ccc(-c2nc3ccccc3[nH]2)cc1 (stereo not drawn) [compound 509] , I see its IC50 listed as > 0.5 µM

Looking up CC(C)NC(=N)c1c(O)nsc1Nc1ccc(Oc2cc(F)cc(F)c2Cl)cc1 [compound 329] , I see its IC50 listed as 0.001 to 0.1 µM

Looking up N=C(NCC1CCCCC1)c1c(O)nsc1Nc1ccc(Sc2ccc([N+](=O)[O-])cc2)cc1 [compound 84] , I see its IC50 listed as 0.1 to 0.5 µM

Looking up N=C(NCC1CCCCC1)c1c(O)nsc1NCCc1ccccc1 [compound 120] , I see its IC50 listed as > 0.5 µM

Looking up CC(C)NC(=N)c1c(O)nsc1Nc1ccc(Oc2cc(C(F)(F)F)ccc2Cl)cc1 [compound 294] , I see its IC50 listed as 0.1 to 0.5 µM

Looking up N=C(NCCOc1ccccc1)c1c(O)nsc1Nc1ccc(Oc2ccccc2)cc1 [compound 36] , I see its IC50 listed as 0.1 to 0.5 µM

Looking up CC(C)(C)CCNC(=N)c1c(O)nsc1Nc1ccc(Oc2ccccc2)cc1 [compound 41] , I see its IC50 listed as 0.1 to 0.5 µM

Looking up CC(CO)NC(=N)c1c(O)nsc1Nc1ccc(Oc2ccc(F)cc2)c(Br)c1 (stereo not drawn) [compound 209] , I see its IC50 listed as 0.1 to 0.5 µM

Looking up N=C(NCC1CCCCC1)c1c(O)nsc1Nc1ccc(CO)cc1 [compound 57] , I see its IC50 listed as > 0.5 µM

Looking up CC(C)NC(=N)c1c(O)nsc1Nc1ccc(Oc2ccc(F)cc2)c(F)c1 [compound 395] , I see its IC50 listed as 0.1 to 0.5 µM

Looking up COCC(C)NC(=N)c1c(O)nsc1Nc1ccc(Oc2cc(F)cc(F)c2)cc1C (stereo not drawn) [compound 467] , I see its IC50 listed as 0.001 to 0.1 µM

Looking up N=C(NN1CCOCC1)c1c(O)nsc1Nc1ccc(Oc2cc(F)cc(F)c2)cc1 [compound 436] , I see its IC50 listed as 0.1 to 0.5 µM

Looking up Cc1cccc(Cl)c1Oc1ccc(Nc2snc(O)c2C(=N)NC(C)CO)cc1 (stereo not drawn) [compound 343] , I see its IC50 listed as > 0.5 µM

Looking up CC(CO)NC(=N)c1c(O)nsc1Nc1ccc(Oc2ccc(Cl)cc2)c(Cl)c1 (stereo not drawn) [compound 359] , I see its IC50 listed as 0.1 to 0.5 µM

Looking up Cc1ccc(Nc2snc(O)c2C(=N)NN2CCOCC2)cc1 [Cpd 5] , I see its IC50 listed as 0.1 to 0.5 µM
